Known Anti-CD28 Fab signal (phage binding ELISA) of a selection of binders
biological target: Anti-CD28 Fab (SEQ ID NOs: 696, 697); assay: phage ELISA, clonal phage supernatant on biotinylated anti-CD28 Fab captured on neutravidin plates
Sequence (VH, as listed by the source, chain 1 of 2): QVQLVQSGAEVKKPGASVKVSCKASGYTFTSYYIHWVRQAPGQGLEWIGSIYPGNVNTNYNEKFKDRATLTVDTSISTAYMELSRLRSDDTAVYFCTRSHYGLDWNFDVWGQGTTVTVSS
Sequence (VL, as listed by the source, chain 2 of 2): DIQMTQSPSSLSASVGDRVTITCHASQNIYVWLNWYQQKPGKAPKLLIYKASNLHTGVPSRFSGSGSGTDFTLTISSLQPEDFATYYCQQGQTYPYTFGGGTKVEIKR
metric: Anti-CD28 Fab signal (phage binding ELISA)

binder	result
YCEGHSSQWMWKCL (Peptide-87 library clone, tested as clonal phage (peptide fused to pIII of the bacteriophage)) [Phage-1124]	1.27
YCDGHLPVYMTKCL (Peptide-87 library clone, tested as clonal phage (peptide fused to pIII of the bacteriophage)) [Phage-1129]	1.27
YCEGHLVQYMQKCL (Peptide-87 library clone, tested as clonal phage (peptide fused to pIII of the bacteriophage)) [Phage-1119]	1.28
YCDGHLEVYMDKCL (Peptide-87 library clone, tested as clonal phage (peptide fused to pIII of the bacteriophage)) [Phage-1122]	1.28
YCDGHRAEYMLKCL (Peptide-87 library clone, tested as clonal phage (peptide fused to pIII of the bacteriophage)) [Phage-1118]	1.29

meta.source: patent US20260242478A1
